details: in methanol, 298.16 K
result type: solubility (mole fraction)
Note: the reply should be a number with no unit written.

Item under review: Cn1c(=O)c2[nH]cnc2n(C)c1=O . Reported solubility (mole fraction)? 0.00137

###

conditions: in n-propanol, 288.01 K
result type: solubility (mole fraction)
Note: the reply should be a number with no unit written.

Item under review: Cn1c(=O)c2[nH]cnc2n(C)c1=O . Reported solubility (mole fraction)? 0.000912

###

conditions: in ethyl acetate, 318.15 K
result type: solubility (mole fraction)

Item under review: Cn1c(=O)c2[nH]cnc2n(C)c1=O . Reported solubility (mole fraction)? 0.0011

###

conditions: in ethyl acetate, 298.15 K
result type: solubility (mole fraction)
Note: the reply should be a number with no unit written.

Item under review: Cn1c(=O)c2[nH]cnc2n(C)c1=O . Reported solubility (mole fraction)? 0.000673
